Can you tell me Adhesion blocking EC50 for the items I'm about to list?
system name: human uPAR displayed on the surface of MDA-MB-231 cells (human, UniProt Q03405 23-305)
Sequence (Q03405 23-305): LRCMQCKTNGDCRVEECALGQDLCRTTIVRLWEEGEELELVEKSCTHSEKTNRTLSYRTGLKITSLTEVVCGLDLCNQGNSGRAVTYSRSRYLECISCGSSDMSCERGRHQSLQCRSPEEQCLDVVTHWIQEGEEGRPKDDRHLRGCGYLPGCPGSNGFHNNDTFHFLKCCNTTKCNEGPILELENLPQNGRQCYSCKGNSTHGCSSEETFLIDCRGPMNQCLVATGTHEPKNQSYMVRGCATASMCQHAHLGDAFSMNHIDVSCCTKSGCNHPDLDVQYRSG
assay summary: cell-based or functional assay
One number for each entry, in µM.

{"columns": ["binder", "observable", "readout value"],
 "data": [
  ["Antibody 3159 (antibody, human IgG1, V domains shown, Chimeric: mouse VH/VL linked to Herceptin (trastuzumab) human IgG1 / kappa constant regions) VH: QVTLKESGPGILQSSLTLSLTCSLSGFSLSTSGMGVSWIRQPSGKGLEWLAHIYWDDDKRYNPSLKTRLTISKDASRDQVFLKIISVDTADTGTYYCGRRVRNYFSGTSYWYFDVWGTGTTVTVSS VL: DVLMTQTPLSLSVSLGDQASISCRSSQNILHRTGNTYLEWYLQKPGQSPKLLIYKVSNRFSGVPDRFSGSGSGTDFTLKISRLEAEDLGVYYCFQGSYVPFTFGSGTKLEMK", "Adhesion blocking EC50", 1.61]
]}

Below is a list of binders. For each, state its recorded Adhesion blocking EC50.
1. Antibody 11857 (antibody, human IgG1, V domains shown) VH: EVQLRQSGPELVKPGASVKISCKASGYTFTDYYMNWVKQSHEKSLEWIGNINPNNGGTDYNQKFKGKATLTVDKSSSTAYMELRSLTSEDSAVYYCARSYGSRFPYWGLGTLVTVSA VL: DIQMTQTTSSLSASLGDRVTISCRASQDITNYLSWYQQKPDGTVKLLIFYTAVLQSGFPLRFSGSGSGADYSLTISNLEQEDFATYFCQQGHTLPWTFGGGTKLEIK
2. Antibody 8163 (antibody, human IgG1, V domains shown, Chimeric: mouse VH/VL linked to Herceptin (trastuzumab) human IgG1 / kappa constant regions) VH: EVQLVESGGGLVQPGESLTLSCDSNEFDFPSHDMSWVRKTPEKRLELVAAIDSDGGLTYYSNSRERRFIISRDNTKNTLYLQMRSLRSEDTALYYCARRRASYWYFDVWGTGTTVTVSS VL: DILLTQSPAILPVSPGERVSFSCRASQNIGTSIHWYQQRTNGSPRLLIKYASESISGIPSRFSGSGSGTDFTLSINGVESEDIGDYYCQQSNSWPTFGGGTKLEIK

1: 0.94; 2: 5.4
